Decision: pKa >= 7 yields TRUE, all other cases yield FALSE.

>>> print(df.to_string())
                                    compound  label
 0  Cc1ccc(NS(=O)(=O)Cc2ccccc2)c(=O)n1CC(=O)NC[C@@H]1CNC(N)=N[C@@H]1C   TRUE
 1  CS(=O)(=O)Nc1ccc(Nc2c3ccccc3nc3cc(I)ccc23)cc1  FALSE
 2                               Cc1ncc[nH]1   TRUE
 3  Cc1c(-c2noc(-c3ccc(OC(C)C)c(C#N)c3)n2)cnc2c1CCN(C(CO)CO)C2  FALSE
 4  Cc1ccc(NS(=O)(=O)Cc2ccccc2)c(=O)n1CC(=O)NCc1ccc(C(=N)N)s1   TRUE
 5  CN1C[C@H](C(=O)N[C@]2(C)O[C@@]3(O)[C@@H]4CCCN4C(=O)[C@H](Cc4ccccc4)N3C2=O)C=C2c3cccc4[nH]cc(c34)C[C@H]21  FALSE
 6  CCCCCS(=O)(=O)NCCCc1ccc(OCCOC)cc1Oc1ncc(C(F)(F)F)cc1Cl   TRUE
 7  Cc1cnc(NCCc2ccccc2)c(=O)n1CC(=O)NCc1cnc(N)nc1  FALSE
 8  CCN(CC)CCCC(C)Nc1c2ccc(Cl)cc2nc2ccc(OC)cc12 (stereo unspecified)   TRUE
 9           c1ccc(Nc2c3ccccc3nc3ccccc23)nc1  FALSE
10  COc1cc(NS(C)(=O)=O)ccc1Nc1c2ccccc2nc2c(F)cccc12  FALSE
11                                Cn1ccnc1Br  FALSE
12  CCCNC(=O)CN(CCN(CCN(CC(=O)O)CC(=O)O)CC(=O)O)CC(=O)O  FALSE
13                     c1ccc(-c2ncc[nH]2)cc1  FALSE
14  COc1ccc(CCNCCCC(C#N)(c2ccc(OC)c(OC)c2)C(C)C)cc1OC (stereo unspecified)   TRUE
15             CCOC(=O)c1ccc(OS(N)(=O)=O)cc1   TRUE
16  C[C@]12CC[C@H]3[C@@H](CCC4=CC(=O)CC[C@@]43C)[C@@H]1CC[C@@H]2O  FALSE
17  COc1cc(NS(C)(=O)=O)ccc1Nc1c2ccccc2nc2c(OCCO)cccc12   TRUE

Attribution: the pKa sets of Baltruschat and Czodrowski (2020)
